Target: human NAMPT (Homo sapiens)
Experiment: Human recombinant enzyme assay (NMN fluorescence biochemical assay, activation of NAMPT)
Details: Table A; human recombinant NAMPT, NMN formation, 60 min; read-out: EC50 Human
Could you mark each record MET if its EC50 falls strictly under 5 µM, and NOT MET if it equals or exceeds it?

INSERT INTO results (molecule, class_label) VALUES
  ('COc1ccc(CNC(=O)NC2CC3(C2)CC(NC(=O)OC(C)(C)C)C3)cc1 (stereo not drawn)', 'NOT MET'),
  ('Cc1ncccc1CC(=O)N1CCC(CCCCNC(=O)NCc2ccc(Cl)cc2)CC1', 'MET'),
  ('Cc1ccc(C(=O)N2CC3(CC(NC(=O)NCc4ccc(Cl)cc4)C3)C2)cc1', 'MET'),
  ('COc1ccc(CNC(=O)NC2CC3(CC(Cc4ccccc4C)C3)C2)cc1 (stereo not drawn)', 'MET'),
  ('Cc1ccc(C(=O)N2CC3(CC(NC(=O)NCc4cn[nH]c4)C3)C2)cc1', 'NOT MET'),
  ('O=C(NCc1ccc(Cl)cc1)NC1CC2(CC(Cc3ccncc3)C2)C1 (stereo not drawn)', 'NOT MET'),
  ('CC(C)(C)OC(=O)NC1CC2(CC(NC(=O)NCc3ccncc3)C2)C1 (stereo not drawn)', 'NOT MET'),
  ('COc1ccc(CNC(=O)NC2CC3(C2)CC(C(=O)N2CCCc4ccccc42)C3)cc1 (stereo not drawn)', 'MET');

---

Target: human NAMPT (Homo sapiens, UniProt P43490)
Sequence (P43490 whole entry): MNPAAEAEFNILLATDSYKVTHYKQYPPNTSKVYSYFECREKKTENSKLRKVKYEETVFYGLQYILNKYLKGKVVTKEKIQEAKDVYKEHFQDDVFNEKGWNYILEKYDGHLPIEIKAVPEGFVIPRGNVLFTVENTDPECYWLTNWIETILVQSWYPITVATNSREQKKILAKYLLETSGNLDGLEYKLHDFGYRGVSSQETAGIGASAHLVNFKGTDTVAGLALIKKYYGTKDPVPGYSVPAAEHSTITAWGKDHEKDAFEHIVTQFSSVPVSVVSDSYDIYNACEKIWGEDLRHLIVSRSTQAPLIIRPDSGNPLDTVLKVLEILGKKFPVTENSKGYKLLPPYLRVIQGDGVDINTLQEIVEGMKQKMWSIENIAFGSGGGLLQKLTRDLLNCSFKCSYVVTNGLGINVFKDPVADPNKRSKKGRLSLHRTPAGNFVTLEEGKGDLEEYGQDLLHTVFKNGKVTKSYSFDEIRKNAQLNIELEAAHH
Test: Human recombinant enzyme assay (NMN fluorescence biochemical assay, activation of NAMPT)
Settings: Table A; human recombinant NAMPT, NMN formation, 60 min; read-out: EC50 Human
pEC50: −log10 of the molar value.
Each item that follows carries a reported pEC50.
Quantity measured: pEC50

INSERT INTO results (compound, quantity_measured, measurement) VALUES
  ('O=C(NCCCCC1CCN(c2nn[nH]n2)CC1)NCc1ccc(Cl)cc1', 'pEC50', 5.06),
  ('COC(=O)N1CCN(C(=O)C2CC3(CC(NC(=O)NCc4ccc(Cl)cc4)C3)C2)CC1 (centres unmarked)', 'pEC50', 6.00),
  ('COc1ccc(CNC(=O)NC2CC3(C2)CN(C(=O)c2ccc(OC)cc2)C3)cc1', 'pEC50', 4.28),
  ('Cc1ccc(C(=O)NC[C@H]2C[C@]3(C2)C[C@@H](NC(=O)NCc2ccc(Cl)cc2)C3)cn1 (some centres unmarked)', 'pEC50', 5.57),
  ('COc1ccc(CNC(=O)NC2CC3(C2)CN(S(=O)(=O)CCc2ccccc2Cl)C3)cc1', 'pEC50', 4.85),
  ('O=C(NCc1ccc(Cl)cc1)NC1CC2(CC(CC(=O)N3CCCC3)C2)C1 (centres unmarked)', 'pEC50', 5.24),
  ('COc1ccc(CNC(=O)NC2CC3(C2)CC(C(=O)N[C@H]2CCc4ccccc42)C3)cc1 (some centres unmarked)', 'pEC50', 4.87),
  ('COc1ccc(CNC(=O)NC2CC3(C2)CC(C(=O)N2CCN(CC4CC4)CC2)C3)cc1 (centres unmarked)', 'pEC50', 4.33);

---

Biological target: human NAMPT (Homo sapiens)
Assay: Human recombinant enzyme assay (NMN fluorescence biochemical assay, activation of NAMPT)
Details: Table A; human recombinant NAMPT, NMN formation, 60 min
Method: Compounds described herein were assayed for their ability to stimulate the synthesis of nicotinamide mononucleotide (NMN) by the enzyme NAMPT. […] Dose responses were measured using an assay to detect the formation of nicotinamide mono-nucleotide. […] The plates were read for fluorescence (Excitation/Emission=355 nm/460 nm) using an EnVision plate reader after 40 mins of incubation at ambient temperature.
Items are presented alongside their recorded AC1.4 Human.
Quantity measured: AC1.4 Human

INSERT INTO assay_data (molecule, quantity_measured, measurement) VALUES
  ('O=C1CC(C(=O)N2CCC(CCCCNC(=O)NCc3ccc(Cl)cc3)CC2)CCN1 (stereo not shown) [Compound 301]', 'AC1.4 Human', '2.7 µM'),
  ('Cc1ccc(C(=O)N2CC3(CC(NC(=O)NCc4ccc(=O)[nH]c4)C3)C2)cc1 [Compound 214]', 'AC1.4 Human', '10.5 µM'),
  ('COc1ccc(CNC(=O)NC2CC3(C2)CN(C(=O)Cc2ccccc2Cl)C3)cc1 [Compound 39]', 'AC1.4 Human', '5.6 µM'),
  ('COc1ccc(CNC(=O)NC2CC3(CC(Cc4ccccc4C)C3)C2)cc1 (stereo not shown) [Compound 336]', 'AC1.4 Human', '0.7 µM');
